FYI, the data here is from paper PMC3961306.

- Study system: panel of more than 300 wild-type and mutant kinases (313 kinase panel) (Homo sapiens, UniProt O95819)
- Measurement notes: Kinase profiling in a biochemical assay panel (mobility shift assays and ELISA), %-inhibition at 1 μM; selectivity entropy
- Condition description: kinase HGK; compound at 1 μM

Molecule | %-inhibition of HGK / %
O=S(=O)(c1cccc2cnccc12)N1CCCNCC1 | -1.82
Cc1ccc(C(=O)Nc2ccc(CN3CCN(C)CC3)c(C(F)(F)F)c2)cc1C#Cc1cnc2cccnn12 | 92
CCN(CC)CCNC(=O)c1c(C)[nH]c(/C=C2\C(=O)Nc3ccc(F)cc32)c1C | 96
CC(C)(C)c1nc(-c2cccc(NS(=O)(=O)c3c(F)cccc3F)c2F)c(-c2ccnc(N)n2)s1 | 7
COc1cc(Nc2c(C#N)cnc3cc(OCCCN4CCN(C)CC4)c(OC)cc23)c(Cl)cc1Cl | 100
Cc1ccc(Nc2nccc(N(C)c3ccc4c(C)n(C)nc4c3)n2)cc1S(N)(=O)=O | 50
CO[C@H]1C[C@@H]2CC[C@@H](C)[C@@](O)(O2)C(=O)C(=O)N2CCCC[C@H]2C(=O)O[C@H]([C@H](C)C[C@@H]2CC[C@@H](OCCO)[C@H](OC)C2)CC(=O)[C@H](C)/C=C(\C)[C@@H](O)[C@@H](OC)C(=O)[C@H](C)C[C@H](C)/C=C/C=C/C=C/1C | 0.896
CCCS(=O)(=O)Nc1ccc(F)c(C(=O)c2c[nH]c3ncc(-c4ccc(Cl)cc4)cc23)c1F | 26
N#CC[C@H](C1CCCC1)n1cc(-c2ncnc3[nH]ccc23)cn1 | 1.09
Cc1nc(Nc2ncc(C(=O)Nc3c(C)cccc3Cl)s2)cc(N2CCN(CCO)CC2)n1 | 78
CNC(=O)c1cc(Oc2ccc(NC(=O)Nc3ccc(Cl)c(C(F)(F)F)c3)c(F)c2)ccn1 | 53
COc1cc2nccc(Oc3ccc(NC(=O)C4(C(=O)Nc5ccc(F)cc5)CC4)cc3)c2cc1OC [cabozantinib] | 21
COc1cc2c(Nc3ccc(Br)cc3F)ncnc2cc1OCC1CCN(C)CC1 | 69
CO[C@H]1C[C@@H]2CC[C@@H](C)[C@@](O)(O2)C(=O)C(=O)N2CCCC[C@H]2C(=O)O[C@H]([C@H](C)C[C@@H]2CC[C@@H](OC(=O)C(C)(CO)CO)[C@H](OC)C2)CC(=O)[C@H](C)/C=C(\C)[C@@H](O)[C@@H](OC)C(=O)[C@H](C)C[C@H](C)/C=C/C=C/C=C/1C | -0.299
CC(=O)Nc1cccc(-n2c(=O)n(C3CC3)c(=O)c3c(Nc4ccc(I)cc4F)n(C)c(=O)c(C)c32)c1 | -3.71

* * *

- Study system: panel of more than 300 wild-type and mutant kinases (313 kinase panel) (Homo sapiens, UniProt O00141)
- Sequence (O00141 whole entry, change not shown): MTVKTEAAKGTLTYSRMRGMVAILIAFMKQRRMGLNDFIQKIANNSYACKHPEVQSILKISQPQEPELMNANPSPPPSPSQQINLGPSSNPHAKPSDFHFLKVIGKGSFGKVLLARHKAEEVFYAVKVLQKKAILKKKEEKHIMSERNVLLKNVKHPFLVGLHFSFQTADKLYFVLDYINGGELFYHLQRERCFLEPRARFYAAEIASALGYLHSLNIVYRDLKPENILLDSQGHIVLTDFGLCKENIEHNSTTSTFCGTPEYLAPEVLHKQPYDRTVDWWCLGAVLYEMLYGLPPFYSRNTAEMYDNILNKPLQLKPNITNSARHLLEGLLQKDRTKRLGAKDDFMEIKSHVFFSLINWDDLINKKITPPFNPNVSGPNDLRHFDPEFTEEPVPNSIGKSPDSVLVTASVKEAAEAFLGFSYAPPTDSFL
- Measurement notes: Kinase profiling in a biochemical assay panel (mobility shift assays and ELISA), %-inhibition at 1 μM; selectivity entropy
- Condition description: kinase SGK; 1 μM

Structure smiles | %-inhibition of SGK (%)
CC(C)(C)c1nc(-c2cccc(NS(=O)(=O)c3c(F)cccc3F)c2F)c(-c2ccnc(N)n2)s1 | 4
CO[C@H]1C[C@@H]2CC[C@@H](C)[C@@](O)(O2)C(=O)C(=O)N2CCCC[C@H]2C(=O)O[C@H]([C@H](C)C[C@@H]2CC[C@@H](OCCO)[C@H](OC)C2)CC(=O)[C@H](C)/C=C(\C)[C@@H](O)[C@@H](OC)C(=O)[C@H](C)C[C@H](C)/C=C/C=C/C=C/1C | -6.59
CNC(=O)c1cc(Oc2ccc(NC(=O)Nc3ccc(Cl)c(C(F)(F)F)c3)c(F)c2)ccn1 | -5.37
